- target-of-assay: UniProtKB P35372
- Sequence (P35372 whole entry): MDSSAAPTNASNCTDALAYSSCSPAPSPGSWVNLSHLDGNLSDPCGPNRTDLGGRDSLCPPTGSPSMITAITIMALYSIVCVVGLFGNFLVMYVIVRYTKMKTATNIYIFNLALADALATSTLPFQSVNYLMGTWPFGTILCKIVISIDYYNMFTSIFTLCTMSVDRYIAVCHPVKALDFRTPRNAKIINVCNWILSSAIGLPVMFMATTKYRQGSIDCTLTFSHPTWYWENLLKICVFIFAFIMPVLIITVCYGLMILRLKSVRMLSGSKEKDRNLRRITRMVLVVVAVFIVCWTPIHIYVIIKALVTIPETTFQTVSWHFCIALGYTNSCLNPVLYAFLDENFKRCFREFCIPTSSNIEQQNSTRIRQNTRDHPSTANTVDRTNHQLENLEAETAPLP
- method-summary: Radioligand Dose-Displacement Binding Assay: Radioligand dose-displacement binding assays for u-opioid receptors used 0.3 nM [3H]-diprenorphine (Perkin Elmer, Shelton, Conn.), with […] in a final volume of 500 ul binding buffer (10 mM MgCl2, 1 mM EDTA, 5% DMSO, 50 mM HEPES, pH 7.4). Reactions were carried out in the absence or presence of increasing concentrations of unlabeled naloxone. All reactions were conducted in 96-deep well polypropylene plates for 2 hours at room temperature. Binding reactions were terminated by rapid filtration onto 96-well Unifilter GF/C filter plates (Perkin Elmer, Shelton, Conn.), presoaked in 0.5% polyethylenimine using a 96-well tissue harvester (Perkin Elmer, Shelton, Conn.) followed by performing three filtration washes with 500 ul of ice-cold binding buffer. Filter plates were subsequently dried at 50 C. for 2-3 hours. BetaScint scintillation cocktail (Perkin Elmer, Shelton, Conn.) was added (50 ul/well), and plates were counted using a Packard Top-Counter.
experimental-readout: pKi
To interpret pKi, take it as minus log10 of a concentration measured in moles per litre.

-- ask GET /values?readout=pKi&item= COc1ccc(CN2C=C3[C@H]4Cc5ccc(OC)cc5[C@@]3(CCN4CC3CC3)CC2=O)cc1
-- reply 6.66

Data origin: ChEMBL document CHEMBL3639236
